All figures here come from paper PMC6298744.

STUDY SYSTEM: 5-HT2A receptor (Homo sapiens)
Sequence (P28223 whole entry): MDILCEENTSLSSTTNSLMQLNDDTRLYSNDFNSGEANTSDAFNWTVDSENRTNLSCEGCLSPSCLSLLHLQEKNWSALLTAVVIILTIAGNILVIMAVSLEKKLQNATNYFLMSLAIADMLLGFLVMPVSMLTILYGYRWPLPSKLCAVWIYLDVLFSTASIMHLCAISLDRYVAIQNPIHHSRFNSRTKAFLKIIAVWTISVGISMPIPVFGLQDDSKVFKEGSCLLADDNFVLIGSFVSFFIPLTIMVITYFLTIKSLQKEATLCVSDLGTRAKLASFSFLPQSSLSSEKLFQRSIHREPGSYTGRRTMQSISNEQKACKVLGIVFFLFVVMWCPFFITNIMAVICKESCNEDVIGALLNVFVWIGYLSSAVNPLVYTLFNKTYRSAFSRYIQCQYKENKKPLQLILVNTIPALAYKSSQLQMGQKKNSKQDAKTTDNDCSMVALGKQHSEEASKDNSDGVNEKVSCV
ASSAY PROTOCOL: biochemical
Assay type: binding
CONDITION NOTES: read-out: Inhibition of radioligand binding Ki, 5-HT2A [^125I]DOI

| MOLECULE | STUDY SYSTEM | Ki / nM |
| --- | --- | --- |
| COc1cc(CC(C)N)c(OC)cc1C (single isomer, unassigned; (-)) [DOM, (-)2,5-dimethoxy-4-methylamphetamine, reference compound] | 5-HT2A receptor (Homo sapiens) | 18.3 |

====

Here the recorded pEC50 is given for each entry.
STUDY SYSTEM: hNET (Homo sapiens, UniProt P23975)
Sequence (P23975 whole entry): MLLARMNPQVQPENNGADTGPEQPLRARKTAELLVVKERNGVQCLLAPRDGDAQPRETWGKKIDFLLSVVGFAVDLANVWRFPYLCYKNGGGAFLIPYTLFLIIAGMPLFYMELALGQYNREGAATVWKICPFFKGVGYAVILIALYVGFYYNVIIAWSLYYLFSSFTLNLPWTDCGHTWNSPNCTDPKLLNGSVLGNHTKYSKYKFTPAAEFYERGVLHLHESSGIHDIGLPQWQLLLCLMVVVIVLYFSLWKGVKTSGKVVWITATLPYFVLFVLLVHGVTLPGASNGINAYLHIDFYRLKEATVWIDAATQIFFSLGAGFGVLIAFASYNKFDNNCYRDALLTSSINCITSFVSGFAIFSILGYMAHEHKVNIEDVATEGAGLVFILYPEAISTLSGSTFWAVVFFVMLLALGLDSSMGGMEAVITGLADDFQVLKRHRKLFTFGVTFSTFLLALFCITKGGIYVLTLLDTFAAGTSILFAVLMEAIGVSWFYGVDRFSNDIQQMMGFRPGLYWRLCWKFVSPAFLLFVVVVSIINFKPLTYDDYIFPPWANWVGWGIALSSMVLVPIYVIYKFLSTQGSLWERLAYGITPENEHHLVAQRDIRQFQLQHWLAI
ASSAY PROTOCOL: Release of preloaded [^3H]NE from HEK-hNET cells
Type: cell-based
pEC50: −log10 of the molar value.

| COMPOUND | pEC50 |
| --- | --- |
| COc1cc(CCNCc2ccccc2OC)c(OC)cc1C [25D-NBOMe] | < 4.48 |
| CCc1cc(OC)c(CCNCc2ccccc2OC)cc1OC [25E-NBOMe] | < 4.18 |
| COc1ccc(OC)c(CCNCc2ccccc2OC)c1 [25H-NBOMe] | < 4.18 |
| COc1cc(CCNCc2ccccc2O)c(OC)cc1I [25I-NBOH] | < 4.00 |

====

Reported Emax values are given for each entry in this list.
STUDY SYSTEM: 5-HT2B receptor (Homo sapiens, UniProt P41595)
Sequence (P41595 whole entry): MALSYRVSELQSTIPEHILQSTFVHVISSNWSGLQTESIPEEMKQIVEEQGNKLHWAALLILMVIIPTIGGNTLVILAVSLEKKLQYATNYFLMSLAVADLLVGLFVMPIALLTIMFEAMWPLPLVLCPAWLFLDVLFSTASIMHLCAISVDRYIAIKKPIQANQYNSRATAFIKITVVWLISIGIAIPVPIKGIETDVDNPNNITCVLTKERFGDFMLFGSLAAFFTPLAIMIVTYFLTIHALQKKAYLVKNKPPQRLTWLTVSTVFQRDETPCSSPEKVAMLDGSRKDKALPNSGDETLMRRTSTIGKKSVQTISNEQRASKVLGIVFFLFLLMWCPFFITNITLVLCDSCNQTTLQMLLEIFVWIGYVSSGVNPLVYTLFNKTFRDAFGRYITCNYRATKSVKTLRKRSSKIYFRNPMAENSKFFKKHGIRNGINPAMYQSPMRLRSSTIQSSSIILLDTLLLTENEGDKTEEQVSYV
ASSAY PROTOCOL: 5-HT2B receptor inositol monophosphate
Format: cell-based
CONDITION NOTES: read-out: % maximum stimulation, 5-HT2B stimulation of IP-1 formation
READOUT TYPE: Emax (%)

| COMPOUND | MEASURED RESULT |
| --- | --- |
| COc1cc(CCNCc2ccccc2O)c(OC)cc1I [25I-NBOH] | 21.3 |
| COc1ccc(OC)c(CCNCc2ccccc2OC)c1 [25H-NBOMe] | 37.7 |
| COc1cc(CCNCc2ccccc2OC)c(OC)cc1C [25D-NBOMe] | 47.7 |
| CCc1cc(OC)c(CCNCc2ccccc2OC)cc1OC [25E-NBOMe] | 49.4 |

====

STUDY SYSTEM: human 5-HT1A receptor (Homo sapiens, UniProt P08908)
Sequence (P08908 whole entry): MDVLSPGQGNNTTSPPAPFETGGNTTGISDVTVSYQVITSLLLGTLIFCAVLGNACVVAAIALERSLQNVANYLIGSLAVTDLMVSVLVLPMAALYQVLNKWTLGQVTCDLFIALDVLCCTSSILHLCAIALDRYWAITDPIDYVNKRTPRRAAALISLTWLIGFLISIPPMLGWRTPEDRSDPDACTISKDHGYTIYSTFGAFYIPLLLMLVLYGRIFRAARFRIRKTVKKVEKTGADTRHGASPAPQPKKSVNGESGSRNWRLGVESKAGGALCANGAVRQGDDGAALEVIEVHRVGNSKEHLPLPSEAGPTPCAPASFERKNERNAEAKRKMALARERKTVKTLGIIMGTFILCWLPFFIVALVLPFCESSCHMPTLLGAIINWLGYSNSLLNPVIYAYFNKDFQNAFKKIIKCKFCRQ
ASSAY PROTOCOL: 5-HT1A receptor [^3H]8-OH-DPAT radioligand binding
CONDITION NOTES: read-out: Inhibition of radioligand binding Ki, 5-HT1A [^3H]8OH-DPAT; mean ± sem; recombinant human 5-HT1A in HEK cells; agonist radioligand
pKi: −log10 of the molar value.

| COMPOUND | pKi |
| --- | --- |
| COc1cc(CC(C)N)c(OC)cc1C (single isomer, unassigned; (-)) [DOM, (-)2,5-dimethoxy-4-methylamphetamine, reference compound] | 5.44 |
| COc1cc([N+](=O)[O-])c(OC)cc1CCNCc1ccccc1OC [25N-NBOMe] | 5.65 |

====

STUDY SYSTEM: hDAT (Homo sapiens)
ASSAY PROTOCOL: Inhibition of [^125I]RTI-55 binding to hDAT
CONDITION NOTES: read-out: Inhibition of [^125I]RTI-55 binding Ki, hDAT; mean ± sem; HEK-hDAT
READOUT TYPE: Ki

| COMPOUND | MEASURED RESULT |
| --- | --- |
| COc1cc([N+](=O)[O-])c(OC)cc1CCNCc1ccccc1OC [25N-NBOMe] | 37.9 µM |
| COc1cc(CC(C)N)c(OC)cc1C (single isomer, unassigned; (-)) [DOM, (-)2,5-dimethoxy-4-methylamphetamine, reference compound] | > 100 µM |
| CCN(CC)C(=O)[C@@H]1C=C2c3cccc4[nH]cc(c34)C[C@H]2N(C)C1 [LSD, (+)lysergic acid diethylamide, reference compound] | > 100 µM |

====

STUDY SYSTEM: 5-HT2A receptor (Homo sapiens)
ASSAY PROTOCOL: cell-based
Type: cell-based
CONDITION NOTES: ratio of EC50 values
READOUT TYPE: Selectivity (functional ratios) 5-HT2A: 5-HT2B

| COMPOUND | MEASURED RESULT |
| --- | --- |
| COc1cc([N+](=O)[O-])c(OC)cc1CCNCc1ccccc1OC [25N-NBOMe] | 92 |
| COc1ccc(OC)c(CCNCc2ccccc2OC)c1 [25H-NBOMe] | 11 |
| CCc1cc(OC)c(CCNCc2ccccc2OC)cc1OC [25E-NBOMe] | 47 |
| COc1cc(CCNCc2ccccc2OC)c(OC)cc1C [25D-NBOMe] | 21 |
| COc1cc(CCNCc2ccccc2O)c(OC)cc1I [25I-NBOH] | 146 |

====

Let's look at some compounds and their measured % maximum release, hDAT [^3H]DA.
STUDY SYSTEM: hDAT (Homo sapiens, UniProt Q01959)
Sequence (Q01959 whole entry): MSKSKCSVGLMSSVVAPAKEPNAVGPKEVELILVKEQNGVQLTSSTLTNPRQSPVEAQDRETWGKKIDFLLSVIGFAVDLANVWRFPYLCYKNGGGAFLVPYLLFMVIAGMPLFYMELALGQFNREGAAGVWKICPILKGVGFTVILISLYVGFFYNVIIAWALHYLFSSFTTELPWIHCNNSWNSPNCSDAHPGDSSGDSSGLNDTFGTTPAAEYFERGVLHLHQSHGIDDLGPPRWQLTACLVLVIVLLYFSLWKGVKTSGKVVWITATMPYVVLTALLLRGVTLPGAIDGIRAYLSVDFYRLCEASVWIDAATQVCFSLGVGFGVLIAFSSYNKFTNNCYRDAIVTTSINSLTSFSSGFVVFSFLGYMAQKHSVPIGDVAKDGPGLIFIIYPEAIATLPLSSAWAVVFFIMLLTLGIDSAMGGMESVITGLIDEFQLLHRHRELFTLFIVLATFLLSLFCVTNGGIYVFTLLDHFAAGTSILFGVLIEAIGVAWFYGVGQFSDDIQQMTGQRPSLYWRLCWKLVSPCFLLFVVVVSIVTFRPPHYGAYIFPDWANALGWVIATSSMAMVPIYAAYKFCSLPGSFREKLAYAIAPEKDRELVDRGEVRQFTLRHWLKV
ASSAY PROTOCOL: Release of preloaded [^3H]DA from HEK-hDAT cells
Format: cell-based
CONDITION NOTES: relative to maximum release induced by METH (1–10 μM)
READOUT TYPE: % maximum release, hDAT [^3H]DA (%)

| COMPOUND | READOUT TYPE | MEASURED RESULT |
| --- | --- | --- |
| COc1ccc(OC)c(CCNCc2ccccc2OC)c1 [25H-NBOMe] | % maximum release, hDAT [^3H]DA | −0.18 |
| COc1cc(CCNCc2ccccc2OC)c(OC)cc1C [25D-NBOMe] | % maximum release, hDAT [^3H]DA | 0.75 |
| CN[C@@H](C)Cc1ccccc1 [METH, (S+)methamphetamine, reference compound] | % maximum release, hDAT [^3H]DA | 104.1 |
| CCN(CC)C(=O)[C@@H]1C=C2c3cccc4[nH]cc(c34)C[C@H]2N(C)C1 [LSD, (+)lysergic acid diethylamide, reference compound] | % maximum release, hDAT [^3H]DA | 7.4 |
| CCc1cc(OC)c(CCNCc2ccccc2OC)cc1OC [25E-NBOMe] | % maximum release, hDAT [^3H]DA | 5.8 |
| COc1cc([N+](=O)[O-])c(OC)cc1CCNCc1ccccc1OC [25N-NBOMe] | % maximum release, hDAT [^3H]DA | −0.89 |
| COc1cc(CCNCc2ccccc2O)c(OC)cc1I [25I-NBOH] | % maximum release, hDAT [^3H]DA | −0.56 |
| COc1cc(CC(C)N)c(OC)cc1C (single isomer, unassigned; (-)) [DOM, (-)2,5-dimethoxy-4-methylamphetamine, reference compound] | % maximum release, hDAT [^3H]DA | −0.20 |

====

STUDY SYSTEM: 5-HT2A receptor (Homo sapiens)
ASSAY PROTOCOL: biochemical
Format: binding
CONDITION NOTES: ratio of Ki values
With a cut-off of 10, any Selectivity (binding ratios) 5-HT2A : 5-HT2B strictly below it is called true; any Selectivity (binding ratios) 5-HT2A : 5-HT2B meeting it or above is called false.

| COMPOUND | CLASS |
| --- | --- |
| CCc1cc(OC)c(CCNCc2ccccc2OC)cc1OC [25E-NBOMe] | true |
| COc1cc(CCNCc2ccccc2O)c(OC)cc1I [25I-NBOH] | false |
| COc1ccc(OC)c(CCNCc2ccccc2OC)c1 [25H-NBOMe] | false |
| COc1cc([N+](=O)[O-])c(OC)cc1CCNCc1ccccc1OC [25N-NBOMe] | false |
| COc1cc(CCNCc2ccccc2OC)c(OC)cc1C [25D-NBOMe] | true |

====

STUDY SYSTEM: hNET (Homo sapiens)
ASSAY PROTOCOL: Release of preloaded [^3H]NE from HEK-hNET cells
Format: cell-based
CONDITION NOTES: relative to maximum release induced by METH (0.3–1 μM)
Listed below: % maximum release, hNET [^3H]NE values for each entry.

| MOLECULE | STUDY SYSTEM | % maximum release, hNET [^3H]NE (%) |
| --- | --- | --- |
| CN[C@@H](C)Cc1ccccc1 [METH, (S+)methamphetamine, reference compound] | hNET (Homo sapiens) | 106.7 |
| CCc1cc(OC)c(CCNCc2ccccc2OC)cc1OC [25E-NBOMe] | hNET (Homo sapiens) | 17.1 |
| CCN(CC)C(=O)[C@@H]1C=C2c3cccc4[nH]cc(c34)C[C@H]2N(C)C1 [LSD, (+)lysergic acid diethylamide, reference compound] | hNET (Homo sapiens) | 35.7 |
| COc1cc(CC(C)N)c(OC)cc1C (single isomer, unassigned; (-)) [DOM, (-)2,5-dimethoxy-4-methylamphetamine, reference compound] | hNET (Homo sapiens) | 25.5 |
| COc1cc([N+](=O)[O-])c(OC)cc1CCNCc1ccccc1OC [25N-NBOMe] | hNET (Homo sapiens) | 25 |
| COc1cc(CCNCc2ccccc2OC)c(OC)cc1C [25D-NBOMe] | hNET (Homo sapiens) | 14.3 |
| COc1cc(CCNCc2ccccc2O)c(OC)cc1I [25I-NBOH] | hNET (Homo sapiens) | 16 |
| COc1ccc(OC)c(CCNCc2ccccc2OC)c1 [25H-NBOMe] | hNET (Homo sapiens) | 21 |
